- experimentalSystem: UniProt P30872
- Sequence (P30872 whole entry): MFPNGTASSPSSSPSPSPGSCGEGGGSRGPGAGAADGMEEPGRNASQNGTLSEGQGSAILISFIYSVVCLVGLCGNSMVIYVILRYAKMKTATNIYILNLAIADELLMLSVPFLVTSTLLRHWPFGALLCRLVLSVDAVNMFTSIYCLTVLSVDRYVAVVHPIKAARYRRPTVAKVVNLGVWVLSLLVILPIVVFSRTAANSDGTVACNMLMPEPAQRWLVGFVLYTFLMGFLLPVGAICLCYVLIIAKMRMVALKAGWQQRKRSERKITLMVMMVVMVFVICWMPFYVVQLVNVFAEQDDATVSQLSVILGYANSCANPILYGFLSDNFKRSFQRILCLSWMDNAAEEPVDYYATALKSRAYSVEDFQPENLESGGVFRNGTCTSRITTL
- methodDescription: somatostatin receptor affinity (pKd), human
- Format: binding
pKd: −log10 of the molar value.
measureName: pKd

Problem: Specify pKd for `CN(CCC(=O)N1CCN(c2ccc(F)c(F)c2)CC1)CCC1c2ccccc2Oc2ccccc21` and stop.
Solution: 8.30 to 8.80

---

- experimentalSystem: UniProt:P30873
- Sequence (P30873 whole entry): as the sequence (P30872 whole entry) above, with G25A, G26C, A32S, T385A, T389S counted along it
measureName: Kd

Problem: Report Kd from UniProt:P30873 testing of `CN(CCC(=O)N1CCN(c2ccc(F)c(F)c2)CC1)CCC1c2ccccc2Oc2ccccc21`
Solution: 3.98 to 10 nM

---

- experimentalSystem: somatostatin receptors (sst1) (Rattus norvegicus)
- Sequence (P28646 whole entry): as the sequence (P30872 whole entry) above, with S8P, S11T, P16S, S20G, G25V, G26C, A32S, A45S, T385A, T389S counted along it
- methodDescription: somatostatin receptor affinity (pKd), rat
- Format: binding
measureName: pKd
Scale: negative log10 of molar concentration, which is what pKd denotes.

Problem: Specify pKd for `CN(CCC(=O)N1CCN(c2ccc(F)c(F)c2)CC1)CCC1c2ccccc2Oc2ccccc21` and stop.
Solution: 9.10
